Entries and their measured IC50 follow.
experimentalSystem: human αVβ6 (Homo sapiens, UniProt P06756+P18564)
Construct: purchased R & D systems 3817-AV
Sequence (P06756 31-992 limits assumed): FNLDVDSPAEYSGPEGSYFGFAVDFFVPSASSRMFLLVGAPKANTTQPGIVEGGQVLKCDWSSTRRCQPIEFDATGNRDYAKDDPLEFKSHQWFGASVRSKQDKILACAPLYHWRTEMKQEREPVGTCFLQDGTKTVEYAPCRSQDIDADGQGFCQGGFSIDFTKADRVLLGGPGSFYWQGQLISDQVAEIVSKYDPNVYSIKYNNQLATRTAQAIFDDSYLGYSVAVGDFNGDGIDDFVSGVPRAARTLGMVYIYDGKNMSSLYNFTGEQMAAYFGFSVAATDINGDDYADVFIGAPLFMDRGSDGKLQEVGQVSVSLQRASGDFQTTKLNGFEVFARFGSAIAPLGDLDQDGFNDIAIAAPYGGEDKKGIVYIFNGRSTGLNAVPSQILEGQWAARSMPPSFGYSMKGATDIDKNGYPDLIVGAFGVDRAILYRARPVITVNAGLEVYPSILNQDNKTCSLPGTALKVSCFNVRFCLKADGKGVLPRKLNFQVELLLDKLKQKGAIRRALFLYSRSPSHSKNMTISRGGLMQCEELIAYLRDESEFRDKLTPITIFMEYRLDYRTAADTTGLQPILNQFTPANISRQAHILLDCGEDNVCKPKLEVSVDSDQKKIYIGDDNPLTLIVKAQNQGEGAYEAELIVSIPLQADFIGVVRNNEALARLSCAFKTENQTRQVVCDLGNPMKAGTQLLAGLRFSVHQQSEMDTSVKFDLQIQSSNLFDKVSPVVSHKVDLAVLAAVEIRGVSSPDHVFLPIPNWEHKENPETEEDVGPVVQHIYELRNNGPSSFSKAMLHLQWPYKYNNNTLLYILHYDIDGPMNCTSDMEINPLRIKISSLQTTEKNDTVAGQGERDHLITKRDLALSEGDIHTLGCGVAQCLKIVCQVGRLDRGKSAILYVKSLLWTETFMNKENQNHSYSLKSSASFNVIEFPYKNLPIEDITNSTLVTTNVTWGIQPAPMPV
Sequence (P18564 22-707 limits assumed): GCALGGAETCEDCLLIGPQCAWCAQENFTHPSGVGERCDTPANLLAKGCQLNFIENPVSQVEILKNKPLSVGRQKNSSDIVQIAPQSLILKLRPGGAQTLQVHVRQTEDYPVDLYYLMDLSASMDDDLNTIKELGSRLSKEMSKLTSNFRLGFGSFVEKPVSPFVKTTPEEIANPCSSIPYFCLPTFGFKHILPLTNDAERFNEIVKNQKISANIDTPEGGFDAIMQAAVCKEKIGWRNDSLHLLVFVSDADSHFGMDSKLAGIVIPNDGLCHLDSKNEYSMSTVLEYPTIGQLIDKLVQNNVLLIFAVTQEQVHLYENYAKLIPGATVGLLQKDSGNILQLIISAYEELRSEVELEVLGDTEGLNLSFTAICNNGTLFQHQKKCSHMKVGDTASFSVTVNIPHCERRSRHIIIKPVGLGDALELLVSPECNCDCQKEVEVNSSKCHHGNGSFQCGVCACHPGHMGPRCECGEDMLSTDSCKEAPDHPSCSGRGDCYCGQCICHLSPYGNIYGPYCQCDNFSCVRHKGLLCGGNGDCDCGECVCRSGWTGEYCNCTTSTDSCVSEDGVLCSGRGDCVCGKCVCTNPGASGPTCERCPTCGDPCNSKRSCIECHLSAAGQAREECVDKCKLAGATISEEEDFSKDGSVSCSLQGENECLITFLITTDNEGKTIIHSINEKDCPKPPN
experiment: human αVβ6 HTRF binding assay
studyConditions: biotinylated recombinant human αVβ6 integrin 1.25 nM, FITC-conjugated fibronectin 5 nM
readoutLabel: IC50 (nM)

INSERT INTO results (compound, experimentalsystem, readoutlabel, valueobserved) VALUES
  ('O=C(O)C[C@@H](c1ccc(OCC2CC2)nc1)N1CCn2cc(CCc3ccc4c(n3)NCCC4)cc2C1=O', 'human αVβ6 (Homo sapiens, UniProt P06756+P18564)', 'IC50', 1.6),
  ('Cc1ncc([C@H](CC(=O)O)N2CCn3cc(CCCc4ccc5c(n4)NCCC5)cc3C2=O)cn1', 'human αVβ6 (Homo sapiens, UniProt P06756+P18564)', 'IC50', 5.6),
  ('COc1ccc([C@H](CC(=O)O)N2CCn3cc(CCC4CCc5cccnc5N4)cc3C2=O)cn1 (single isomer, unassigned) [Example 12]', 'human αVβ6 (Homo sapiens, UniProt P06756+P18564)', 'IC50', 3.2),
  ('O=C(O)C[C@@H](c1ccc(O)c(F)c1)N1CCn2cc(CCc3ccc4c(n3)NCCC4)cc2C1=O', 'human αVβ6 (Homo sapiens, UniProt P06756+P18564)', 'IC50', 4.8),
  ('O=C(N[C@@H](CN1CCn2cc(CCc3ccc4c(n3)NCCC4)cc2C1=O)C(=O)O)OCc1ccccc1', 'human αVβ6 (Homo sapiens, UniProt P06756+P18564)', 'IC50', 4.6),
  ('COc1ccc([C@H](CC(=O)O)N2CCn3cc(CCCCc4ccc5c(n4)NCCC5)cc3C2=O)cc1F', 'human αVβ6 (Homo sapiens, UniProt P06756+P18564)', 'IC50', 12),
  ('COc1ccc([C@H](CC(=O)O)N2CCn3cc(CCC4CCc5cccnc5N4)cc3C2=O)cn1 (mixture of isomers) [Example 9]', 'human αVβ6 (Homo sapiens, UniProt P06756+P18564)', 'IC50', 0.6),
  ('O=C(O)C[C@@H](c1cnc2ccccc2c1)N1CCn2cc(CCCc3ccc4c(n3)NCCC4)cc2C1=O', 'human αVβ6 (Homo sapiens, UniProt P06756+P18564)', 'IC50', 6.5),
  ('COc1ncc([C@H](CC(=O)O)N2CCn3cc(CCCc4ccc5c(n4)NCCC5)cc3C2=O)cn1', 'human αVβ6 (Homo sapiens, UniProt P06756+P18564)', 'IC50', 3.4),
  ('O=C(O)C[C@@H](c1cnc2ccccc2c1)N1CCn2cc(CCc3ccc4c(n3)NCCC4)cc2C1=O', 'human αVβ6 (Homo sapiens, UniProt P06756+P18564)', 'IC50', 1.8),
  ('COc1ccc([C@H](CC(=O)O)N2CCn3c(cc(CCc4ccc5c(n4)NCCC5)c3C)C2=O)cc1F', 'human αVβ6 (Homo sapiens, UniProt P06756+P18564)', 'IC50', 69),
  ('COc1ccc([C@H](CC(=O)O)N2CCn3cc(CCC4CCc5cccnc5N4)cc3C2=O)cc1F (mixture of isomers)', 'human αVβ6 (Homo sapiens, UniProt P06756+P18564)', 'IC50', 0.51),
  ('CCOc1ccc([C@H](CC(=O)O)N2CCn3cc(CCc4ccc5c(n4)NCCC5)cc3C2=O)cn1', 'human αVβ6 (Homo sapiens, UniProt P06756+P18564)', 'IC50', 1.6),
  ('Cc1ncc(C(CC(=O)O)N2CCn3cc(CCc4ccc5c(n4)NCCC5)cc3C2=O)cn1 (stereo not drawn)', 'human αVβ6 (Homo sapiens, UniProt P06756+P18564)', 'IC50', 7.2),
  ('COc1ccc([C@H](CC(=O)O)N2CCn3cc(CCc4ccc5c(n4)NCCC5)cc3C2=O)cn1', 'human αVβ6 (Homo sapiens, UniProt P06756+P18564)', 'IC50', 2.4),
  ('COc1ccc([C@H](CC(=O)O)N2CCn3cc(CCc4ccc5c(n4)NCCC5)cc3C2=O)cc1F', 'human αVβ6 (Homo sapiens, UniProt P06756+P18564)', 'IC50', 3.2),
  ('O=C(O)CC(c1cnc2ccccc2n1)N1CCn2cc(CCc3ccc4c(n3)NCCC4)cc2C1=O (stereo not drawn)', 'human αVβ6 (Homo sapiens, UniProt P06756+P18564)', 'IC50', 140),
  ('Cc1cc(C)c(S(=O)(=O)N[C@@H](CN2CCn3cc(CCc4ccc5c(n4)NCCC5)cc3C2=O)C(=O)O)c(C)c1', 'human αVβ6 (Homo sapiens, UniProt P06756+P18564)', 'IC50', 25),
  ('CC(C)COc1ccc([C@H](CC(=O)O)N2CCn3cc(CCc4ccc5c(n4)NCCC5)cc3C2=O)cn1', 'human αVβ6 (Homo sapiens, UniProt P06756+P18564)', 'IC50', 1.6),
  ('COc1ccc([C@H](CC(=O)O)N2CCn3cc(-c4ccc5c(n4)NCCC5)cc3C2=O)cc1F', 'human αVβ6 (Homo sapiens, UniProt P06756+P18564)', 'IC50', 340),
  ('COc1ccc([C@H](CC(=O)O)N2CCn3cc(Cc4ccc5c(n4)NCCC5)cc3C2=O)cc1F', 'human αVβ6 (Homo sapiens, UniProt P06756+P18564)', 'IC50', 0.73),
  ('COc1ccc([C@H](CC(=O)O)N2CCn3cc(CCCc4ccc5c(n4)NCCC5)cc3C2=O)cn1', 'human αVβ6 (Homo sapiens, UniProt P06756+P18564)', 'IC50', 1.1),
  ('O=C(O)C[C@@H](c1cc(Cl)cc(Cl)c1)N1CCn2cc(CCc3ccc4c(n3)NCCC4)cc2C1=O', 'human αVβ6 (Homo sapiens, UniProt P06756+P18564)', 'IC50', 0.98),
  ('O=C(O)C[C@@H](c1ccc2c(c1)OCC2)N1CCn2cc(CCc3ccc4c(n3)NCCC4)cc2C1=O', 'human αVβ6 (Homo sapiens, UniProt P06756+P18564)', 'IC50', 2.6),
  ('COc1ccc([C@H](CC(=O)O)N2CCn3cc(C(Cc4ccc5c(n4)NCCC5)Cc4ccc5c(n4)NCCC5)cc3C2=O)cc1F', 'human αVβ6 (Homo sapiens, UniProt P06756+P18564)', 'IC50', 1.3),
  ('O=C(O)CC(c1cncnc1)N1CCn2cc(CCc3ccc4c(n3)NCCC4)cc2C1=O (stereo not drawn)', 'human αVβ6 (Homo sapiens, UniProt P06756+P18564)', 'IC50', 23),
  ('COc1ccc([C@H](CC(=O)O)N2CCn3c(cc(CCc4ccc5c(n4)NCCC5)c3I)C2=O)cc1F', 'human αVβ6 (Homo sapiens, UniProt P06756+P18564)', 'IC50', 53),
  ('CC(C)(C)c1cc(Br)cc([C@H](CC(=O)O)N2CCn3cc(CCc4ccc5c(n4)NCCC5)cc3C2=O)c1', 'human αVβ6 (Homo sapiens, UniProt P06756+P18564)', 'IC50', 0.59),
  ('COc1ccc([C@@H](CC(=O)O)N2CCn3cc(CCc4ccc5c(n4)NCCC5)cc3C2=O)cc1F', 'human αVβ6 (Homo sapiens, UniProt P06756+P18564)', 'IC50', 80),
  ('COc1ccc([C@H](CC(=O)O)N2CCn3cc(CCC4CCc5cccnc5N4)cc3C2=O)cn1 (single isomer, unassigned) [Example 11]', 'human αVβ6 (Homo sapiens, UniProt P06756+P18564)', 'IC50', 2.3);
